# credit: patent US20210388087A1

Provide the recorded fold change of affinity for the entries that follow.
assayTarget: T1, Human CD3eg linker (human)
T1 construct: single-chain construct; also called recombinant human CD3
T1 chain: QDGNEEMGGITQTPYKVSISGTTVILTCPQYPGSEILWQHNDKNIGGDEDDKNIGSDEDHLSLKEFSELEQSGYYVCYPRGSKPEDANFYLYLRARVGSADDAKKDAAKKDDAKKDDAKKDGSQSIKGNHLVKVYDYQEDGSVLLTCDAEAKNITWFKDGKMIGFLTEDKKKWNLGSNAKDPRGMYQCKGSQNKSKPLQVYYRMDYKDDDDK
method: SPR, vs unmutated H183/L072
Entry rule: numbers only, all in fold.

-- ask Give the measured fold change of affinity of dBBDu183H G100hW/dBBDu072L (antibody, name in Kabat numbering, V domains shown) VH: QVQLVESGGGLVQPGRSLRLSCAASGFTFSNAWMHWVRQAPGKGLEWVAQIKDKGNAYAAYYAPSVKGRFTISRDDSKNSIYLQMNSLKTEDTAVYYCHYVHYASASTVLPAFWVDAWGQGTTVTVSS VL: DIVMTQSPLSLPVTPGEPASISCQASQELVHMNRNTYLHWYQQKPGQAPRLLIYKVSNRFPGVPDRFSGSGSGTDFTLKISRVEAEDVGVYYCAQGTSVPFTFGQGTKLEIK .
-- reply 0

-- ask Would you kindly share the measured fold change of affinity for dBBDu183H A100fE/dBBDu072L (antibody, name in Kabat numbering, V domains shown) VH: QVQLVESGGGLVQPGRSLRLSCAASGFTFSNAWMHWVRQAPGKGLEWVAQIKDKGNAYAAYYAPSVKGRFTISRDDSKNSIYLQMNSLKTEDTAVYYCHYVHYASASTVLPEFGVDAWGQGTTVTVSS VL: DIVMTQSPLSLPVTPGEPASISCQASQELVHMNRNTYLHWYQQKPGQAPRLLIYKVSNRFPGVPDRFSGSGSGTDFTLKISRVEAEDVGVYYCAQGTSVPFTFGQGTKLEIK ?
-- reply 0.5

-- ask Param item = dBBDu183H A100fH/dBBDu072L (antibody, name in Kabat numbering, V domains shown) VH: QVQLVESGGGLVQPGRSLRLSCAASGFTFSNAWMHWVRQAPGKGLEWVAQIKDKGNAYAAYYAPSVKGRFTISRDDSKNSIYLQMNSLKTEDTAVYYCHYVHYASASTVLPHFGVDAWGQGTTVTVSS VL: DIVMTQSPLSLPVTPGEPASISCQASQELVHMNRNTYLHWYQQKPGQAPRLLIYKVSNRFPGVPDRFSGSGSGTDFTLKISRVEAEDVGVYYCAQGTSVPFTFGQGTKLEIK ; retrieve measured fold change of affinity.
-- reply 1.2

-- ask Fill blank: measured fold change of affinity of the binder dBBDu183H D101E/dBBDu072L (antibody, name in Kabat numbering, V domains shown) VH: QVQLVESGGGLVQPGRSLRLSCAASGFTFSNAWMHWVRQAPGKGLEWVAQIKDKGNAYAAYYAPSVKGRFTISRDDSKNSIYLQMNSLKTEDTAVYYCHYVHYASASTVLPAFGVEAWGQGTTVTVSS VL: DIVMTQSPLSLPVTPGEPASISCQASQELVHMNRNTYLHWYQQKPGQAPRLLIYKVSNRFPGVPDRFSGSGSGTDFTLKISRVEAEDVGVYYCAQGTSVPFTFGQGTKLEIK is ____.
-- reply 0

-- ask Which fold change of affinity reading was recorded for the binder dBBDu183H T100bV/dBBDu072L (antibody, name in Kabat numbering, V domains shown) VH: QVQLVESGGGLVQPGRSLRLSCAASGFTFSNAWMHWVRQAPGKGLEWVAQIKDKGNAYAAYYAPSVKGRFTISRDDSKNSIYLQMNSLKTEDTAVYYCHYVHYASASVVLPAFGVDAWGQGTTVTVSS VL: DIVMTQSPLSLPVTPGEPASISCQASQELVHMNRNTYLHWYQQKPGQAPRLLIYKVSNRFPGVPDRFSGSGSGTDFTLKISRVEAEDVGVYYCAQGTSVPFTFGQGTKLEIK ?
-- reply 1.2
